Test system: human Factor 7 mRNA
Test method notes: Antisense inhibition of human Factor 7 mRNA in HepB3 cells, lipofectin, 50 nM, real-time RT-PCR
Assay type: cell-based
Conditions used: HepB3 cells; gapmers (5-10-5, 3-14-3, 2-13-5 MOE) targeted to nucleobases 4868 to 4899 of SEQ ID NO: 1
In the oligonucleotide strings, read from the 5' end, every base follows the letter of its sugar. An asterisk marks phosphorothioate; unmarked linkages are phosphodiester. Other units and linkages are bracketed, terminal groups are in braces. A string of capitals states the bases alone. e = 2'-O-(2-methoxyethyl) (MOE); [5mC] = 5-methylcytosine; d = 2'-deoxy (DNA)
Assay endpoint: % Inhibition of human Factor 7 mRNA levels (%)
Numbers only here, please. The scale is %.

Some substances with recorded % Inhibition of human Factor 7 mRNA levels:
>  <Substance>
422301 (antisense eG*eG*dA*dG*d[5mC]*d[5mC]*d[5mC]*dG*dA*dG*dT*dT*d[5mC]*dT*dG*e[5mC]*eA*eG*eG*eA) [compound 422301]

>  <Unit symbol>
%

>  <Result>
67

$$$$
>  <Substance>
422299 (antisense eA*eG*d[5mC]*d[5mC]*d[5mC]*dG*dA*dG*dT*dT*d[5mC]*dT*dG*d[5mC]*dA*eG*eG*eA*eG*e[5mC]) [compound 422299]

>  <Unit symbol>
%

>  <Result>
64

$$$$
>  <Substance>
422148 (antisense eG*eG*eA*eG*e[5mC]*d[5mC]*d[5mC]*dG*dA*dG*dT*dT*d[5mC]*dT*dG*e[5mC]*eA*eG*eG*eA) [compound 422148]

>  <Unit symbol>
%

>  <Result>
57

$$$$
>  <Substance>
422214 (antisense eT*eT*e[5mC]*dT*dG*d[5mC]*dA*dG*dG*dA*dG*d[5mC]*dG*dG*d[5mC]*d[5mC]*dT*eA*eA*eA) [compound 422214]

>  <Unit symbol>
%

>  <Result>
60

$$$$
>  <Substance>
422213 (antisense eT*e[5mC]*eT*dG*d[5mC]*dA*dG*dG*dA*dG*d[5mC]*dG*dG*d[5mC]*d[5mC]*dT*dA*eA*eA*eT) [compound 422213]

>  <Unit symbol>
%

>  <Result>
67

$$$$

// next entry
Please give the documented % Inhibition of human Factor 7 mRNA levels of 416509 (antisense eA*eG*eG*eA*eG*d[5mC]*d[5mC]*d[5mC]*dG*dA*dG*dT*dT*d[5mC]*dT*eG*e[5mC]*eA*eG*eG) [compound 416509] 60
